Biological target: hKOP receptor (Homo sapiens, UniProt P41145)
Sequence (P41145 whole entry): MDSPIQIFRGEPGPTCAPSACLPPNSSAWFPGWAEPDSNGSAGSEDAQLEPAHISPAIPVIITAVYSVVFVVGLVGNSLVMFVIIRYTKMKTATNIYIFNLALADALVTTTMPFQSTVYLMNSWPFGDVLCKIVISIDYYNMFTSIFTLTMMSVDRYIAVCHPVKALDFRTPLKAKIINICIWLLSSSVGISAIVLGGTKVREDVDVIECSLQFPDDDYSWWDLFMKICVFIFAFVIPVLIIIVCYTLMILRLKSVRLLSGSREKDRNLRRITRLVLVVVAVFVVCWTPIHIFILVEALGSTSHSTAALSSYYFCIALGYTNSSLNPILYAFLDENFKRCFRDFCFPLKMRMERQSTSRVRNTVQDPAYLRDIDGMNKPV
Test: biochemical
Assay type: biochemical
Conditions: [35S]GTPγS binding EC50, mean
readout.kind: pEC50
pEC50 (log units): -log10 of the concentration in mol/L.

See these solved cases before continuing.
INSERT INTO assay_data (compound, assayed_system, readout_kind, observed_measurement) VALUES
  ('Oc1ccc2c(c1)[C@@]13CCCC[C@@]1(O)[C@@H](C2)N(CC1CCC1)CC3', 'hKOP receptor (Homo sapiens, UniProt P41145)', 'pEC50', 8.62),
  ('CCC12CCN(CC3(O)CC3)C(Cc3ccc(O)cc31)C2(C)C (centres unmarked)', 'hKOP receptor (Homo sapiens, UniProt P41145)', 'pEC50', 9.02),
  ('CN1c2ccccc2C(c2ccccc2F)=NCC1CNC(=O)c1ccsc1 (centres unmarked)', 'hKOP receptor (Homo sapiens, UniProt P41145)', 'pEC50', 6.48);

Prompt line: Look up pEC50 for this compound: CC(C)=CCN1CCC2(C)c3cc(O)ccc3CC1C2C (centres unmarked)
Response line: 7.55

Prompt line: Look up pEC50 for this compound: CN1CC[C@]23CCCC[C@H]2[C@H]1Cc1ccc(O)cc13
Response line: 7.14

###

Target: hKOP receptor (Homo sapiens)
Experiment: biochemical
Assay type: biochemical
Conditions: [35S]GTPγS binding pEC50
Recorded pEC50, one value per entry.
pEC50 (log units): -log10 of the concentration in mol/L.

See these solved cases before continuing.
INSERT INTO assay_data (compound, observed_measurement) VALUES
  ('CC(C)=CCN1CCC2(C)c3cc(O)ccc3CC1C2C (stereo not drawn)', 7.55),
  ('C=CCN1CC[C@]23c4c5ccc(O)c4O[C@H]2[C@@H](O)C=C[C@H]3[C@H]1C5', 7.56);

Consider the record given below.
Prompt line: Look up pEC50 for this compound: Oc1ccc2c(c1)[C@@]13CCCC[C@@]1(O)[C@@H](C2)N(CC1CCC1)CC3
Response line: 8.63

###

Recorded EC50, one value per entry.
Molecular target: UniProt P41145
Assay: cell-based
Type: cell-based
Conditions: Internalization EC50, mean
Reply numerically in nM, unit not repeated.

INSERT INTO assay_data (molecule, assayed_system, readout_kind, observed_measurement) VALUES
  ('CCC12CCN(CC3(O)CC3)C(Cc3ccc(O)cc31)C2(C)C (centres unmarked)', 'UniProt P41145', 'EC50', 1.4);

Prompt line: Look up EC50 for this molecule: CC(C)=CCN1CCC2(C)c3cc(O)ccc3CC1C2C (centres unmarked)
Response line: 92

###

Molecular target: UniProt:P41145
Assay: cell-based
Assay type: cell-based
Settings: Internalization pEC50
readout.kind: pEC50
pEC50 (log units): -log10 of the concentration in mol/L.

INSERT INTO measurements (compound, observed_measurement) VALUES
  ('CC(C)=CCN1CCC2(C)c3cc(O)ccc3CC1C2C (centres unmarked)', 7.04),
  ('CCC12CCN(CC3(O)CC3)C(Cc3ccc(O)cc31)C2(C)C (centres unmarked)', 8.87),
  ('C=CCN1CC[C@]23c4c5ccc(O)c4O[C@H]2[C@@H](O)C=C[C@H]3[C@H]1C5', 7.92),
  ('CN1c2ccccc2C(c2ccccc2F)=NCC1CNC(=O)c1ccsc1 (centres unmarked)', 7.95);

Consider the record given below.
Prompt line: Look up pEC50 for this compound: Oc1ccc2c(c1)[C@@]13CCCC[C@@]1(O)[C@@H](C2)N(CC1CCC1)CC3
Response line: 8.48

###

Biological target: hKOP receptor (Homo sapiens, UniProt P41145)
Assay: cell-based
Type: cell-based
Conditions: read-out: Internalization Emax (% receptor internalized)
readout.kind: Emax (%)
Reply numerically in %, unit not repeated.

INSERT INTO measurements (compound, observed_measurement) VALUES
  ('CCC12CCN(CC3(O)CC3)C(Cc3ccc(O)cc31)C2(C)C (stereo not drawn) [Bremazocine, bremazocine]', 39.2);

Prompt line: Form entry - test system: hKOP receptor (Homo sapiens, UniProt P41145); read-out: Emax; compound: C=CCN1CC[C@]23c4c5ccc(O)c4O[C@H]2[C@@H](O)C=C[C@H]3[C@H]1C5 [Nalorphine, nalorphine]
Response line: 23.9

Prompt line: Form entry - test system: hKOP receptor (Homo sapiens, UniProt P41145); read-out: Emax; compound: CN1c2ccccc2C(c2ccccc2F)=NCC1CNC(=O)c1ccsc1 (stereo not drawn) [Tifluadom, tifluadom]
Response line: 29.6

Prompt line: Form entry - test system: hKOP receptor (Homo sapiens, UniProt P41145); read-out: Emax; compound: CC[C@]12CCN(CC3CC3)[C@H](C(=O)c3ccc(O)cc31)[C@@H]2C [EKC, ethylketocyclazocine]
Response line: 44.8

Prompt line: Form entry - test system: hKOP receptor (Homo sapiens, UniProt P41145); read-out: Emax; compound: CC(C)=CCN1CCC2(C)c3cc(O)ccc3CC1C2C (stereo not drawn) [Pentazocine, pentazocine]
Response line: 37

Prompt line: Form entry - test system: hKOP receptor (Homo sapiens, UniProt P41145); read-out: Emax; compound: Oc1ccc2c(c1)[C@@]13CCCC[C@@]1(O)[C@@H](C2)N(CC1CCC1)CC3 [Butorphanol, butorphanol]
Response line: 33.4
